// reported pIC50 for each item listed
- tested system: recombinant human SAE enzyme (Homo sapiens (Human))
- Sequence (Q9UBT2 whole entry): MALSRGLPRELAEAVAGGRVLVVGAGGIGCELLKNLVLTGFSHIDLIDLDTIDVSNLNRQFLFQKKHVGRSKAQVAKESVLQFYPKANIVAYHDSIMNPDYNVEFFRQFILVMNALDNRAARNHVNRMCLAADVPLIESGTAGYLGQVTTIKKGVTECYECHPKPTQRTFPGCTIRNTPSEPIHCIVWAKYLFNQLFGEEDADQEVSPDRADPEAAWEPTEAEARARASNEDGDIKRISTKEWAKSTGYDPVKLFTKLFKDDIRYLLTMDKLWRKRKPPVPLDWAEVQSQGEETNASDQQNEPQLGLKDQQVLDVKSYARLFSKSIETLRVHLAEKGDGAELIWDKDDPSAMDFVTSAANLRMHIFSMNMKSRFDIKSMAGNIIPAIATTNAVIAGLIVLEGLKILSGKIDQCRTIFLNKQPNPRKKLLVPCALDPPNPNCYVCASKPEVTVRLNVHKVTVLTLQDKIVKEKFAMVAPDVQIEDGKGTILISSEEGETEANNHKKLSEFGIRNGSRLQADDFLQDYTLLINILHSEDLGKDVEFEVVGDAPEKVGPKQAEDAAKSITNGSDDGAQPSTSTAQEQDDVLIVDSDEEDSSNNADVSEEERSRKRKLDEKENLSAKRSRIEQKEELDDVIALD
- Sequence (Q9UBE0 whole entry partner): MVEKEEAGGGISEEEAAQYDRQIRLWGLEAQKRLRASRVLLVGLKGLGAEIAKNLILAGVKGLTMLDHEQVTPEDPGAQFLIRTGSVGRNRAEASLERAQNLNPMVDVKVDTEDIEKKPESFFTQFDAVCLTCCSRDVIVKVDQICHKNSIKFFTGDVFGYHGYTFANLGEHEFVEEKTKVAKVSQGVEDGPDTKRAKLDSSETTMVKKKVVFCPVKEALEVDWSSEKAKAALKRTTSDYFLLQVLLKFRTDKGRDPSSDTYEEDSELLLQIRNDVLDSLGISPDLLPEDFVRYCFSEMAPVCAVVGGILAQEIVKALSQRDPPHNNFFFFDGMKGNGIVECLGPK
- assay explanation: SAE HTRF enzyme assay
- Type: biochemical
- test context: class symbols A/B/C
pIC50: −log10 of the molar value.

INSERT INTO assay_data (molecule, readout_name, assay_value) VALUES
  ('NS(=O)(=O)OC[C@H]1C[C@@H](Nc2ncncc2C(=O)c2cc([C@H]3OCCc4ccc(Cl)cc43)cs2)C[C@@H]1O (mixture of isomers)', 'pIC50', '> 8.00');

I'd like to know its pIC50. The molecule in question is Cc1sc(C(=O)c2cncnc2N[C@@H]2C[C@H](COS(N)(=O)=O)[C@@H](O)[C@@H]2F)cc1[C@@H]1OCCc2ccccc21 (single isomer, unassigned) [I-271a]
> 8.00

Param item = NS(=O)(=O)OC[C@H]1C[C@@H](Nc2ncncc2C(=O)c2cc(Cc3cccc(Cl)c3)c([C@@H]3CCCO3)s2)C[C@@H]1O (single isomer, unassigned) [I-41a] ; retrieve measured pIC50.
> 8.00

Record request: pIC50 value, item "NS(=O)(=O)OC[C@H]1C[C@@H](Nc2ncncc2C(=O)c2cc(Cc3ccc(Cl)c(Cl)c3)cs2)C[C@@H]1O"
> 8.00

// lookup pIC50 for NS(=O)(=O)OC[C@H]1C[C@@H](Nc2ncncc2C(=O)c2cc([C@@]3(c4cccc(Cl)c4)CCCN3)cs2)C[C@@H]1O (single isomer, unassigned) [I-38a]
7.00 to 8.00

What does the record list as pIC50 for "NS(=O)(=O)OC[C@H]1C[C@@H](Nc2ncncc2C(=O)c2cc(Cn3ccc4ccc(C(F)(F)F)cc43)cs2)C[C@@H]1O" ?
7.00 to 8.00

# input molecule: "Cc1sc(C(=O)c2cncnc2N[C@@H]2C[C@H](COS(N)(=O)=O)[C@@H](O)C2)cc1Cn1cc(Br)cc1C#N" ; wanted: its pIC50
> 8.00

Which measured pIC50 value corresponds to COc1ccc(Cl)cc1[C@@H](O)c1cc(C(=O)c2cncnc2N[C@@H]2C[C@H](COS(N)(=O)=O)[C@@H](O)C2)sc1Cl (mixture of isomers) ?
> 8.00

Record request: pIC50 value, item C[C@](N)(c1cccc(Cl)c1)c1csc(C(=O)c2cncnc2N[C@@H]2C[C@H](COS(N)(=O)=O)[C@@H](O)C2)c1 (single isomer, unassigned) [I-12b]
> 8.00

Param item = C[C@](O)(c1cccc(Cl)c1)c1coc(C(=O)c2cncnc2N[C@@H]2C[C@H](COS(N)(=O)=O)[C@@H](O)C2)c1 (single isomer, unassigned) [I-30a] ; retrieve measured pIC50.
> 8.00

Fill in: pIC50 of NS(=O)(=O)OC[C@H]1C[C@@H](Nc2ncncc2C(=O)c2cc([C@H](O)c3cccc(Cl)n3)c(Cl)s2)C[C@@H]1O (single isomer, unassigned) [I-2b] is ___
7.00 to 8.00

====

- tested system: recombinant human SAE enzyme (Homo sapiens (Human))
- assay explanation: SAE HTRF enzyme assay
- Format: biochemical
- test context: SAE inhibition; class symbols, legend in nM
readout name: IC50

INSERT INTO assay_data (compound, readout_name, assay_value) VALUES
  ('NS(=O)(=O)OC[C@H]1C[C@@H](Nc2ncncc2C(=O)c2cc([C@H]3NCCc4ccccc43)cs2)[C@H](O)[C@@H]1O (mixture of isomers)', 'IC50', '< 10 nM'),
  ('Cc1ccc2c(c1)[C@H](c1cc(C(=O)c3cncnc3N[C@@H]3C[C@H](COS(N)(=O)=O)[C@@H](O)C3)sc1C)OCC2 (mixture of isomers)', 'IC50', '< 10 nM'),
  ('Cc1sc(C(=O)c2cncnc2N[C@@H]2C[C@H](COS(N)(=O)=O)[C@@H](O)[C@H]2O)nc1Cc1cccc(Cl)c1', 'IC50', '< 10 nM'),
  ('Cc1sc(C(=O)c2cncnc2N[C@@H]2C[C@H](COS(N)(=O)=O)[C@@H](O)C2)cc1[C@@H]1OCCc2ccc(Cl)nc21 (single isomer, unassigned) [I-286b]', 'IC50', '< 10 nM'),
  ('NS(=O)(=O)OC[C@H]1C[C@@H](Nc2ncncc2C(=O)c2cc([C@@H]3NCCc4ccc(Cl)cc43)c(Cl)o2)C[C@@H]1O (single isomer, unassigned) [I-299a]', 'IC50', '< 10 nM');

Can you look up the measured IC50 of Cc1sc(C(=O)c2cncnc2N[C@@H]2C[C@H](COS(N)(=O)=O)[C@@H](O)C2)cc1[C@@H]1OCCc2ccc(Cl)nc21 (mixture of isomers) [I-286] for me?
< 10 nM

Recorded IC50 for "Cc1sc(C(=O)c2cncnc2N[C@@H]2C[C@H](COS(N)(=O)=O)[C@@H](OC(=O)CN)C2)cc1[C@@H]1OCCc2ccc(Cl)cc21" , please?
100 to 1000 nM

Which IC50 value is on record for NS(=O)(=O)OC[C@H]1C[C@@H](Nc2ncncc2C(=O)c2cc([C@@H]3CCc4ccc(Cl)cc43)cs2)C[C@@H]1O (single isomer, unassigned) [I-349b] ?
10 to 100 nM

Requested field: IC50. Item: NS(=O)(=O)OC[C@H]1C[C@@H](Nc2ncncc2C(=O)c2cc([C@@H]3OCc4ccc(Cl)cc43)c(Cl)s2)C[C@@H]1O (single isomer, unassigned) [I-310b]
< 10 nM

What does the data say about its IC50? Entry: Cc1sc(C(=O)c2cncnc2N[C@@H]2C[C@H](COS(N)(=O)=O)[C@@H](O)C2)cc1[C@@H]1OCCc2cccnc21 (single isomer, unassigned) [I-285a]
< 10 nM
